Reported pEC50 is given for each of the following compounds.
- System: Human coronavirus OC43
- test.method.notes: Antiviral activity against HCoV-OC43 infected in human RD cells assessed as reduction in viral replication pre-infected with virus for 1.5 hrs followed by compound addition and measured after 3 to 5 days by CPE assay
- Type: functional, organism-based
- condition.summary: Betacoronavirus 1, RD
// pEC50 here means minus log10 of the molar concentration (mol/L)

Here are 2 compounds together with their reported answers.
compound: Cc1ncsc1-c1ccc(CNC(=O)[C@@H]2C[C@@H](O)CN2C(=O)[C@@H](NC(=O)Cn2cc(COc3ccc(COC(=O)N[C@@H](CC(C)C)C(=O)N[C@H](C=O)C[C@@H]4CCNC4=O)cc3)nn2)C(C)(C)C)cc1
pEC50: 4.68
--
compound: Cc1ncsc1-c1ccc(CNC(=O)[C@@H]2C[C@@H](O)CN2C(=O)[C@@H](NC(=O)CCOCCOCCOCCNC(=O)CCCCCCCn2cc(COc3ccc(COC(=O)N[C@@H](CC(C)C)C(=O)N[C@H](C=O)C[C@@H]4CCNC4=O)cc3)nn2)C(C)(C)C)cc1
pEC50: 4.54

Q) Looking for the measured pEC50 of Cc1ncsc1-c1ccc(CNC(=O)[C@@H]2C[C@@H](O)CN2C(=O)[C@@H](NC(=O)COCCCCCn2cc(COc3ccc(COC(=O)N[C@@H](CC(C)C)C(=O)N[C@@H](C[C@@H]4CCNC4=O)C(O)S(=O)(=O)[O-])cc3)nn2)C(C)(C)C)cc1.[Na+] (some centres undefined) , can you help?
A) 5.34
